Test Target: human orexin-2 receptor (Homo sapiens (Human))
Sequence (O43614 whole entry): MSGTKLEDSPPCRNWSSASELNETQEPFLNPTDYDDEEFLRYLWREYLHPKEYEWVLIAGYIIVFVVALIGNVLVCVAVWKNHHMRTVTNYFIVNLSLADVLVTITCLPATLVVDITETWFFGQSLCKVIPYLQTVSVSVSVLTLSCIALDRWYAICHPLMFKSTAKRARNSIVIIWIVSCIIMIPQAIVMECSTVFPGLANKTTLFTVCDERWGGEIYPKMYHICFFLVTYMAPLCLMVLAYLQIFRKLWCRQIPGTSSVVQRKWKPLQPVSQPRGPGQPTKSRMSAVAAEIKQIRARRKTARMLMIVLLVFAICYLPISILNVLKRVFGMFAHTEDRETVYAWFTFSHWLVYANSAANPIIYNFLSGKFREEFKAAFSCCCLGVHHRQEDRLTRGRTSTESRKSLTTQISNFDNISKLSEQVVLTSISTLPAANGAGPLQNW
Assay Comment: Intracellular calcium measurement (FLIPR), CHO cells expressing human orexin-2 receptor, 3 nM orexin-A
Format: cell-based
Experimental Conditions: CHO cells expressing human orexin-2 receptor, FLIPR, 3 nM orexin-A; geometric mean if determined several times; read-out: IC50 OX2
Observation Type: IC50 (nM)

// worked examples, IC50 included
• Cc1ccc(-n2nccn2)c(C(=O)N2CCC[C@H]2c2nc(-c3cccc4[nH]ccc34)no2)c1 = 92
• O=C(c1ccc(F)cc1-n1cccn1)N1CCC[C@H]1c1nc(-c2ccccc2OC(F)(F)F)no1 = 347
• COc1cc(Cl)cc(-c2nc([C@@H]3CCCN3C(=O)c3cc(C)ccc3-n3nccn3)no2)n1 = 19

[P] C[C@@]1(c2nnc(-c3ccccc3OC(F)(F)F)[nH]2)CCCN1C(=O)c1ccc(Cl)cc1-n1nccn1
[Q] Cc1ccc(-n2nccn2)c(C(=O)N2CCC[C@H]2c2ncn(-c3ccccc3)n2)c1
[R] COc1ccc(C(=O)N2CCC[C@H]2c2nc(-c3ccccc3OC(F)(F)F)no2)c(-n2nccn2)c1
Query string: Ordering criterion: IC50; begin with the maximum. Output the labels ranked as instructed.
Result string: Q, R, P
(Q: 363 nM, R: 90 nM, P: 6 nM)

----------
Test Target: orexin-1 (Homo sapiens (Human), UniProt O43613)
Sequence (O43613 whole entry): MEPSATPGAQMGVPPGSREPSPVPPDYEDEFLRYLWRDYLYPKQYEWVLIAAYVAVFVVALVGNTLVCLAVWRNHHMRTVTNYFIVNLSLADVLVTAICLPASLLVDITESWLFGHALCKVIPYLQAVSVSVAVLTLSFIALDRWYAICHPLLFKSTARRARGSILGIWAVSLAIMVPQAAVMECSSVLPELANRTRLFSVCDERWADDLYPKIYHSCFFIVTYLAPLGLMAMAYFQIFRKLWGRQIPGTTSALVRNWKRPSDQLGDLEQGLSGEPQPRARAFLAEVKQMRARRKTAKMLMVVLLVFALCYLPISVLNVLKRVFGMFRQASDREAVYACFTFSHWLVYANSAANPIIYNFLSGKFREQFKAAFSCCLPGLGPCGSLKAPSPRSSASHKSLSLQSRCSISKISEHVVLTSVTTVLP
Assay Comment: Intracellular calcium measurement (FLIPR), CHO cells expressing human orexin-1 receptor, 3 nM orexin-A
Format: cell-based
Experimental Conditions: CHO cells expressing human orexin-1 receptor, FLIPR, 3 nM orexin-A; geometric mean if determined several times; read-out: IC50 OX1
Observation Type: IC50 (nM)
Express the result in nM but write the number alone.

Query string: Item under review: `Cc1ccc(-n2nccn2)c(C(=O)N2CCC[C@H]2c2nc(-c3cc(C)ccc3C)no2)c1` . Reported IC50?
Result string: 63

Query string: Look up IC50: `Cc1ccc(-c2ccccn2)c(C(=O)N2CCC[C@H]2c2nc(-c3cccc(Cl)c3C)no2)c1`
Result string: 137

Query string: Query: IC50; subject: `COc1cc(C(=O)N2CCC[C@H]2c2noc(-c3cccc(Cl)c3C)n2)c(-n2nccn2)cc1F`
Result string: 158

----------
Test Target: UniProtKB O43614
Assay Comment: Intracellular calcium measurement (FLIPR), CHO cells expressing human orexin-2 receptor, 3 nM orexin-A
Type: cell-based
Experimental Conditions: CHO cells expressing human orexin-2 receptor, FLIPR, 3 nM orexin-A; geometric mean if determined several times; read-out: IC50 OX2
Observation Type: IC50 (nM)
Give your result in nM as a bare value.

* Cc1ccc(-n2nccn2)c(C(=O)N2CCC[C@H]2c2nc(-c3ccnc(Cl)c3)no2)c1 | 1160
* CCOc1ncccc1-c1noc([C@@H]2CCCN2C(=O)c2cc(Cl)c(C)cc2-n2nccn2)n1 | 6
* Cc1cc(-n2nccn2)c(C(=O)N2CCC[C@H]2c2nc(-c3ccccc3OC(F)(F)F)no2)cc1Cl | 19

Query string: Please look up its IC50: `COc1cc(C(=O)N2CCC[C@H]2c2nnc(-c3cccc(Cl)c3C)o2)c(-n2nccn2)cc1Cl`
Result string: 6

Query string: Using the record for `CCOc1ncccc1-c1noc([C@@H]2CCCN2C(=O)c2cc(OC)c(Cl)cc2-n2nccn2)n1` , report its IC50.
Result string: 5

Query string: # get_value(readout='IC50', item= `Cc1ccc(C(=O)N2CCC[C@H]2c2cc(-c3cccc(Cl)c3C)n[nH]2)c(-n2nccn2)c1` )
Result string: 57
